Test system: TGFβ1-induced expression of COL1A1 protein in human HSC
Assay: Col1α1 ELISA on supernatants of TGFβ1-activated human HSC
Format: cell-based
Details: secreted COL1A1, TGFβ1 1 ng/ml, 48 h
Property: pIC50
Reminder that pIC50 means the negative base-10 logarithm of the concentration expressed in mol/L.

Please fill in: pIC50 reported for CC(C)(C)[C@H](N)C(=O)Oc1ccccc1C(=O)Nc1ncc([N+](=O)[O-])s1 = 5.57
